# Target or test system: T1, 4H3121-AA
# T1 chain: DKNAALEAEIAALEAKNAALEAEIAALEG
# Method notes: two-hybrid library CCmax;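 note: natural log of median RNA to DNA barcode read ratio; higher means stronger binding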
# Condition parameters: mean of both orientations
Listed here are binders together with their documented interaction score.
Assay metric: interaction score

Binder: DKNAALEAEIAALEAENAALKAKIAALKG [4H3102-AA]
Assay metric: interaction score
Observed measurement: -0.0964

Binder: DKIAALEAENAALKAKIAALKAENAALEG [4H2283-AA]
Assay metric: interaction score
Observed measurement: -0.934

Binder: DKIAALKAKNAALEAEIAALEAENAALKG [4H2948-AA]
Assay metric: interaction score
Observed measurement: -1.15

Binder: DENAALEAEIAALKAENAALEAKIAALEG [4H1109-AA]
Assay metric: interaction score
Observed measurement: -0.8

Binder: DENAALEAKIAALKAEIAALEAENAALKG [4H1348-AA]
Assay metric: interaction score
Observed measurement: -1.43

Binder: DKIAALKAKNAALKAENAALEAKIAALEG [4H3029-AA]
Assay metric: interaction score
Observed measurement: -1.89

Binder: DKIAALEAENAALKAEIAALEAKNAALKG [4H2248-AA]
Assay metric: interaction score
Observed measurement: -1.69
